- measuredOn: T1, Human B7-H4 with HisFlag tag (huB7-H4-his) (human, UniProt Q7Z7D3 25-258)
- T1 construct: also called HuB7-H4 His protein; huB7-H4-HF
- T1 sequence: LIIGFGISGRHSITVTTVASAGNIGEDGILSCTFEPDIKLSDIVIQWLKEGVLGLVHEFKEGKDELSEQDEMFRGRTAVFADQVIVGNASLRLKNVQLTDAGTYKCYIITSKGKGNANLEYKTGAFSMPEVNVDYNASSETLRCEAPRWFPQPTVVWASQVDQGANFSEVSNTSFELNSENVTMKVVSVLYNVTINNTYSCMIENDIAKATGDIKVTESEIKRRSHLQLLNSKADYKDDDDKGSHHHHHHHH
- experimentalProtocol: SPR Biacore T200, antibody coupled to CM5 chip, hu-B7-H4-his in flow, 1:1 model
Kd by entry:
reportedMetric: Kd (pM)

1. humanized anti-B7-H4 antibody hu2F7 (antibody, human IgG1, kappa, V domains shown, human IgG1 / kappa; also called humanized antibody 2F7) VH: EVQLVESGGGLVQPGGSLRLSCAASGFTFSNYYMSWVRQAPGKGLEWVAYVSSGGGSTYYSDSVKGRFTISRDNAKNTLYLQMSSLRAEDTAVYYCTRESYSQGNYFDYWGQGTTVTVSS VL: EIVMTQSPATLSLSPGERATLSCRASQSISDYLHWYQQKPGQSPRLLIKFASQSISGIPARFSGSGSGTDFTLTISSLEPEDFAVYYCQNGHSFSLTFGQGTKLEIKR	757
2. humanized anti-B7-H4 antibody hu2F8 (antibody, human IgG1, kappa, V domains shown, human IgG1 / kappa; also called humanized antibody 2F8) VH: EVQLVQSGAEVKKPGASVKVSCKASGYTFTSSWMNWVRQAPGQRLEWMGGIYPNRGNIEYNEKFKGRVTLTVDTSASTAYMELSSLRSEDTAVYYCARDSRFSYWGQGTLVTVSS VL: DIQMTQSPSSLSASVGDRVTITCKASQDVRTAVAWYQQKPGKAPKLLISSTSYRYTGVPSRFSGSGSGTDFTFTISSLQPEDIATYYCQQHYSTPLTFGGGTKVEIKR	250
